- system_name: Steroid hormone receptor ERR1 (Homo sapiens) (UniProt P11474)
- Sequence (P11474 whole entry, looked up): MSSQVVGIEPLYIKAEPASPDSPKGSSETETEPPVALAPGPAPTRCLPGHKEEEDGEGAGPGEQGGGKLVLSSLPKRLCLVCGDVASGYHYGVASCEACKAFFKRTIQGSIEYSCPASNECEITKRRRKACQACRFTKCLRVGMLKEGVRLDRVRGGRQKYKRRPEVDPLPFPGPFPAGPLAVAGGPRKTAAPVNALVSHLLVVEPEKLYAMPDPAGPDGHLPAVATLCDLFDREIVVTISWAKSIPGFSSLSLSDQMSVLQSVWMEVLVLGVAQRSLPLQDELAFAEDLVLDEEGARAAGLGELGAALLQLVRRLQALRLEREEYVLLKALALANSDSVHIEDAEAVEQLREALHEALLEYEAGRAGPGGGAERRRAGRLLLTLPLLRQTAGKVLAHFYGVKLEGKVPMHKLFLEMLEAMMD
- method_description: ATG_ERRa_TRANS: Attagene TRANS-FACTORIAL HepG2 Assay for human Estrogen-Related Receptor alpha (ERRa) (AID 2282971)
- particulars: HepG2 Attagene TRANS reporter, ERRa transactivation
Inconclusive results are not listed. The source made the active and inactive calls. How the source made its calls: active means hit-call score of the fitted dose curve at least 0.9, where 1 is the maximum; inconclusive means response in the unintended direction; inactive means score below 0.9.

item_smiles	system_name	outcome
CCCCCCCCOc1ccc(C(=O)c2ccccc2)c(O)c1	Steroid hormone receptor ERR1 (Homo sapiens) (UniProt P11474)	inactive
C[C@]12CC[C@@H]3c4ccc(O)cc4CC[C@H]3[C@@H]1CC[C@H]2O	Steroid hormone receptor ERR1 (Homo sapiens) (UniProt P11474)	inactive
CO[C@H]1/C=C/O[C@@]2(C)Oc3c(C)c(O)c4c(O)c(c(/C=N/N5CCN(C)CC5)c(O)c4c3C2=O)NC(=O)/C(C)=C\C=C\[C@H](C)[C@H](O)[C@@H](C)[C@@H](O)[C@@H](C)[C@H](OC(C)=O)[C@@H]1C	Steroid hormone receptor ERR1 (Homo sapiens) (UniProt P11474)	inactive

* * *

- Read-out: Bcl-2 (BID) gene, BID (gene 637)
- method_description: LTEA_HepaRG_BID: Life Technologies and Expression Analysis (LTEA) Assay for Bcl-2 (BID) gene using HepaRG (AID 2283476)
- particulars: mRNA level, 48 h; actives raise or lower the signal
Active and inactive are the calls of the source. How the source made its calls: active means hit-call score of the fitted dose curve at least 0.9, where 1 is the maximum; inactive means score below 0.9.
Hi there, use one of these labels in your reply, thanks! 1 for active, 0 for inactive

Reference set, count: 4
compound	cat
CO[C@H]1/C=C/O[C@@]2(C)Oc3c(C)c(O)c4c(O)c(c(/C=N/N5CCN(C)CC5)c(O)c4c3C2=O)NC(=O)/C(C)=C\C=C\[C@H](C)[C@H](O)[C@@H](C)[C@@H](O)[C@@H](C)[C@H](OC(C)=O)[C@@H]1C	0
CN(C)c1ccc(C(=C2C=CC(=[N+](C)C)C=C2)c2ccc(N(C)C)cc2)cc1	0
O=C(O)Cn1c(=O)n(Cc2ccc(Br)cc2F)c(=O)c2ccc(Cl)cc21	0
Clc1ccccc1C(c1ccccc1)(c1ccccc1)n1ccnc1	0

Any idea what this test logged for `CC(=O)N1CCN(c2ccc(OC[C@H]3CO[C@](Cn4ccnc4)(c4ccc(Cl)cc4Cl)O3)cc2)CC1` ?
0

So what was the verdict on CN1C(=O)N(c2ccccc2Br)Cc2cnc(Nc3ccc4c(c3)OCC(CO)O4)nc21 (centres undefined) in this test?
1

So what was the verdict on `Cc1ncc(CO)c(CO)c1O` in this test?
0

How did this test come out for `NC(=O)c1nc(-c2cccc(-c3cc(F)ccc3OCC(F)(F)C(F)(F)F)c2)n[nH]1` ?
0

What call does the record list for `OCCO` ?
0

* * *

- Read-out: Monocyte Chemoattractant Protein-1 (MCP1), CCL2 (gene 6347)
- method_description: BSK_CASM3C_MCP1: BioMAP Diversity Plus: CASM3C Assay for Monocyte Chemoattractant Protein-1 (MCP1) Biomarker Activity (AID 2283046);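 further: MCP-1 level quantified by ELISA 24 h after dosing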
- particulars: primary human coronary artery smooth muscle cells; actives raise or lower the signal
The source made the active and inactive calls. How the source made its calls: active means hit-call score of the fitted dose curve at least 0.9, where 1 is the maximum; inactive means score below 0.9.
Please reply with one of these outcomes: active, inactive

These solved cases illustrate the format of a correct answer.
compound	cat
Cc1ccc(C(C)C)cc1	inactive
CCCCCCCCCCCCO	active
C[C@]12CC[C@@H]3c4ccc(O)cc4CC[C@H]3[C@@H]1CC[C@H]2O	inactive
CCN(CC)C(=O)c1cc(S(=O)(=O)Cc2ccccc2)c(N2CCC(c3ccccc3)CC2)cc1N(CC)CCN(C)C	inactive
CN1C(=O)N(c2ccccc2Br)Cc2cnc(Nc3ccc4c(c3)OCC(CO)O4)nc21 (stereo not drawn)	active

Query: recorded result category for `CC1(C)NC(=O)N(c2ccc([N+](=O)[O-])c(C(F)(F)F)c2)C1=O` in this test
inactive

Write down the call the test reported for this compound. Item: `CN(C)C(=O)C1(N2CCCCC2)CCN(CC[C@@]2(c3ccc(Cl)c(Cl)c3)CN(C(=O)c3ccccc3)CCO2)CC1`
active

What is the recorded call for this compound in the test? `CCCCOC(=O)c1ccc(O)cc1`
inactive

Called result for `Clc1cc(Cl)c2c(c1)N=C1CCCCCN1C2`
inactive

Write down the call the test reported for this compound. Item: `CC(C)(c1cc(Br)c(O)c(Br)c1)c1cc(Br)c(O)c(Br)c1`
active

Call for entry `CC1=CC(=O)/C(=C(/C)O)C(=O)O1` :
inactive

Please let me know the test result on file for `Cc1occc1C(=O)Nc1ccc(C(=O)N2CCC(F)(F)/C(=C\C(=O)N3CCC(N4CCCCC4)CC3)c3ccccc32)cc1` .
inactive

What did this assay record as the result for `CO[C@H]1/C=C/O[C@@]2(C)Oc3c(C)c(O)c4c(O)c(c(/C=N/N5CCN(C)CC5)c(O)c4c3C2=O)NC(=O)/C(C)=C\C=C\[C@H](C)[C@H](O)[C@@H](C)[C@@H](O)[C@@H](C)[C@H](OC(C)=O)[C@@H]1C` ?
inactive

Assay result, entry `CCCCCCCCOc1ccc(C(=O)c2ccccc2)c(O)c1` — outcome?
inactive

What is the recorded call for this compound in the test? `O=C(O)c1ccccc1C(=O)OCc1ccccc1`
inactive

Tell me the assay call for `Cc1ncc(CO)c(CO)c1O` please.
inactive

How did this test come out for `CCCCCCCCOC(=O)c1cc(O)c(O)c(O)c1` ?
active
